molecular target: 5-hydroxytryptamine receptor 2A (Mus musculus, UniProt P35363); assay type: functional, cell-based;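 further: CHO-K1 cells with tagged receptor and beta-arrestin; agonist potency measured as compound-induced activation of the receptor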
Sequence (P35363 whole entry): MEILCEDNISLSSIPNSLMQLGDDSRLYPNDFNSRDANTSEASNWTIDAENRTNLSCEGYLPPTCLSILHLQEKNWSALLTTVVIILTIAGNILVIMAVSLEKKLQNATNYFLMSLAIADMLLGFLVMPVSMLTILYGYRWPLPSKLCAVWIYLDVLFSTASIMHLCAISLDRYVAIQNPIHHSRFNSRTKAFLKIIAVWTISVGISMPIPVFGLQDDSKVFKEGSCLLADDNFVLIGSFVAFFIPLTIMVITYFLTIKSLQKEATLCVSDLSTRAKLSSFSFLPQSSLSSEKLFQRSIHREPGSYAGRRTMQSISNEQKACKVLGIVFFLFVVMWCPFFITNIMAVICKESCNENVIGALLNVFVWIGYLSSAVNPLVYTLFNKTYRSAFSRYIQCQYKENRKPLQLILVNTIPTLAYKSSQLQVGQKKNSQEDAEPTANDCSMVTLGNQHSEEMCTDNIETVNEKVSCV
Calls of active or inactive are those of the source.
Catalogue of EC50 values

Compound	EC50
O=C(CN1CCN(c2ccccn2)CC1)Nc1cccc(S(=O)(=O)N2CCCC2)c1	9850 nM (active)
O=C(c1ccco1)N1CCN(Cc2ccc(Cl)cc2)CC1	4080 nM (active)
OC(COCc1ccc(Cl)cc1)CN1CCN(c2ccccn2)CC1 (stereo not given)	819 nM (active)
Brc1cccc(CN2CCN(c3ncccn3)CC2)c1	352 nM (active)

// query Record request: EC50 value, item COc1cccc(C(=O)NNC(=O)CCN2CCN(c3ccccc3)CC2)c1
// result 427 nM (active)

###

Catalogue of EC50 values
assay: Luminescence Cell-Based Dose Confirmation HTS to Identify Inhibitors of Platelet Dense Granule Release. [Related pubchem assays: 1663 (Primary HTS), 1678 (Summary of Project)]; type: functional
The source made the active and inactive calls.

Compound	EC50
COc1cc(/C=C2/C(=O)NN(c3ccc(Cl)cc3)C2=O)ccc1OC(=O)c1ccco1	> 112 µM (not active)
NC(=O)C1(N2CCCCC2)CCN(C(=O)Nc2ccccc2C(F)(F)F)CC1	> 112 µM (not active)
COc1ccc(Nc2cc3n(c(=O)n2)CCc2cc(OC)c(OC)cc2-3)cc1	4.68 µM (active)
COc1ccccc1/C=C/CN1CCCC(CO)(Cc2cccc(Cl)c2)C1 (stereo not given)	> 112 µM (not active)

Could you now look at the following compound, please?
// query Record request: EC50 value, item CCCc1cc(=O)oc2cc(OCC(=O)N3CCc4ccccc43)ccc12
// result > 112 µM (not active)

###

assay: inhibitors of intracellular T. cruzi replication, confirmation, NIH3T3 host cells, beta-gal luminescence (AID 2044); format: functional, cell-based;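 further: intracellular parasites grown in NIH/3T3 mouse fibroblasts as host cells; luminescent beta-galactosidase reporter signal from transgenic T. cruzi replicating inside host cells; inhibitors lower the luminescence signal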
Activity calls are given as the source filed them.
Reported endpoint: EC50

Compound	EC50
Cc1ccc(-c2ccc(/C=C3\SC(N4CCOCC4)=NC3=O)o2)cc1	0.655 µM (active)
O=C(Nc1ccc(N2CCN(C(=O)c3ccc(Cl)cc3)CC2)cc1)c1ccc([N+](=O)[O-])o1	1.81 µM (active)
Clc1ccc(OCCOCCN2CCCCC2)c(Br)c1	0.166 µM (active)

// query Record request: EC50 value, item O=C(Cn1cnc([N+](=O)[O-])n1)NCCc1ccccc1
// result 0.537 µM (active)

// query Record request: EC50 value, item COc1cc2nc(NCCCN3CCN(C)CC3)n3nc(-c4ccccc4)nc3c2cc1OC
// result 1.87 µM (active)

// query Record request: EC50 value, item Cc1cc(C(=O)N2CCc3c([nH]c4ccccc34)C2c2cccc(Cl)c2)nn1C (stereo not drawn)
// result 2.17 µM (active)

// query Record request: EC50 value, item CCOC(=O)c1sc(NC(=O)Nc2ccccc2Cl)cc1C
// result 2.26 µM (active)

// query Record request: EC50 value, item N#Cc1ccc(NC(=O)Nc2ccc(Oc3ccc(NC(=O)Nc4ccc(C#N)cc4)cc3)cc2)cc1
// result 1.01 µM (active)

###

Molecular target: Corticotropin-releasing factor receptor 2/Corticotropin-releasing factor-binding protein (Homo sapiens, UniProt P24387+Q13324)
Sequence (Q13324 whole entry): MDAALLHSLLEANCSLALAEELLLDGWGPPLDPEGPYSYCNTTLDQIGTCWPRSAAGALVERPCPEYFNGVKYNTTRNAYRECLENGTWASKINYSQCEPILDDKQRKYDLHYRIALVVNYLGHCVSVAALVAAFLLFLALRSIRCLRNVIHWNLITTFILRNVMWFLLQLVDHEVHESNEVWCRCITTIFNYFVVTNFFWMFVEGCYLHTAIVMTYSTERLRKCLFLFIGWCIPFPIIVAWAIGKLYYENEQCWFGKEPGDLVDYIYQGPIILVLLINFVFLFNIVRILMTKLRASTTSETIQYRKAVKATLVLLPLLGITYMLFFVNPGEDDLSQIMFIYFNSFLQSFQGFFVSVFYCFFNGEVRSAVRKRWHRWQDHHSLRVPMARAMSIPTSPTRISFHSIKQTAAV
Sequence (P24387 whole entry): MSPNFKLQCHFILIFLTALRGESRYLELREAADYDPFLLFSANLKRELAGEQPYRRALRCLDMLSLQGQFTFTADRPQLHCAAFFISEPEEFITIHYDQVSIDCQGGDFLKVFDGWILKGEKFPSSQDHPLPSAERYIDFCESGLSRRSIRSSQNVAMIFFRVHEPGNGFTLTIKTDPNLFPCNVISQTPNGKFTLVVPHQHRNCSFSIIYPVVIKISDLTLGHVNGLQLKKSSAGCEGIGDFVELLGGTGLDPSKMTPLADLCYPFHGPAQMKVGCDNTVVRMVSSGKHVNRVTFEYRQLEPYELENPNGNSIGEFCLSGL
Experiment: Dose Response confirmation of uHTS hits for small molecule antagonists of the CRF-binding protein and CRF-R2 receptor complex.
Format: functional
Conditions: read-out: IC50_Mean
Calls of active or inactive are those of the source.
Choose one outcome from this list and give only that: t for active, f for inactive

Please review the entries below; each comes with its answer.
Compound	Class
O=C(Cn1cnc([N+](=O)[O-])n1)NCCc1ccccc1	f
COc1ccccc1-c1c(NC(=O)C(C)C)n(C)c2ccccc2c1=O	f
O=S(=O)(Nc1nc2ccccc2s1)c1ccc(Cl)s1	t
O=C(C[C@H]1C/C=C\C[C@@H](Cc2ccc(F)cc2)C(=O)O[C@H](c2ccccc2)CNC1=O)NCCO	f

// query Could you please tell me the result logged for Cc1cccc(C(=O)Oc2ccc(/C=N/NC(=O)c3ccc(O)cc3)cc2)c1 in this assay?
// result f

// query Could you please tell me the result logged for Cc1ccc(CN2CCSc3ccc(C(=O)N4CCN(c5ncccn5)CC4)cc32)cc1 in this assay?
// result f

// query Could you please tell me the result logged for Cc1ccc(C2(C)CC(C)(C)N(C(=O)CSc3nnc(C)s3)c3ccccc32)cc1 (stereo unspecified) in this assay?
// result f

###

molecular target: UniProt:P07900; format: functional, organism-based
Active and inactive are the calls of the source.
Reported endpoint: AC50

Known AC50 results, listed for orientation:
Compound	AC50
COc1ccc(S(=O)(=O)NC2CC3CCC2C3)cc1Br (configuration not stated)	5.25 µM (active)
COc1ccc(NC(=O)/C(Cl)=C(/Cl)[S+]([O-])Cc2ccc(Cl)cc2)cn1 (configuration not stated)	0.885 µM (active)
Cn1ncc2c(Nc3cccc(Cl)c3)nc(Nc3cccc(Cl)c3)nc21	4.31 µM (active)
CC(=NNc1nc2ccccc2s1)c1ncccn1	1.61 µM (active)

// query Record request: AC50 value, item O=C(Nc1nc(-c2cccs2)cs1)c1ccc([N+](=O)[O-])o1
// result 2.32 µM (active)

// query Record request: AC50 value, item O=C(C#Cc1cccc([N+](=O)[O-])c1)c1ccccc1
// result 0.592 µM (active)

// query Record request: AC50 value, item CCCCCCCCCCCCCCCC[n+]1ccc(C(N)=O)cc1
// result 8.77 µM (active)

###

target: Polyadenylate-binding protein 1 (Homo sapiens, UniProt P11940); experiment: PABP1 MLLE–PAM2 interaction inhibitors, dose response, miRNA deadenylation inhibitor project, biochemical, fluorescence polarization, Cy5-PAM2 peptide, secondary (AID 602260); type: functional; details: read-out: IC50_Mean
Sequence (P11940 whole entry): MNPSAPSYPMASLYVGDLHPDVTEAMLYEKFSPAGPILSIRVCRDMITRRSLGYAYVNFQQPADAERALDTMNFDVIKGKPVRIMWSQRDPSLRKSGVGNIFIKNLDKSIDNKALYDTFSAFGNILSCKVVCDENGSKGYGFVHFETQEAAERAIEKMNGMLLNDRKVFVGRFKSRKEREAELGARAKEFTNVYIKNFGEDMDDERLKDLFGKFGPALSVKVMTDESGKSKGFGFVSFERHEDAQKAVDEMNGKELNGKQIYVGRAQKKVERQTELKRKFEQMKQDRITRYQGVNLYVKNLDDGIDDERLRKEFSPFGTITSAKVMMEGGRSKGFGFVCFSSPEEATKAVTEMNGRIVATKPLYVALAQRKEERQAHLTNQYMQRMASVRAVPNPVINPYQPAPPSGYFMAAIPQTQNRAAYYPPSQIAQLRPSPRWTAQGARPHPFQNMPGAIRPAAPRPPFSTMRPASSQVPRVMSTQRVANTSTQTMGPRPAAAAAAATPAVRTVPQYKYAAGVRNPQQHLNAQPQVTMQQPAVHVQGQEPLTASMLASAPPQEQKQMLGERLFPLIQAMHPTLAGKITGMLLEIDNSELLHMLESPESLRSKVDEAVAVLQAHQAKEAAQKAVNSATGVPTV
Active and inactive are the calls of the source.
Catalogue of IC50 values

Known IC50 results, listed for orientation:
Compound	Reported endpoint	Assay value
Cc1cccc(N(CC(N)=O)C2SC(=O)N(c3ccccc3)C2=O)c1 (stereo not drawn)	IC50	> 66 µM (inactive)
COc1ccc(C(=O)CCN2CCC(C)CC2)cc1	IC50	> 66 µM (inactive)

Could you now look at the following compound, please?
// query Record request: IC50 value, item S=C(NCc1ccccn1)Nc1ccc(Br)cc1Cl
// result > 66 µM (inactive)

###

target: Prothrombin (Bos taurus); assay: thrombin inhibition, dose response, biochemical, fluorescence polarization, uHTS hits (AID 602369); format: functional
Activity calls are given as the source filed them.
Choose one outcome from this list and give only that: True (active), False (inactive)

Please review the entries below; each comes with its answer.
Molecule	Class
COc1cc(/C=C2\SC(N)=NC2=O)cc(Cl)c1O	True
CC(C1SC(=S)NC1=O)C1SC(=S)NC1=O (centres undefined)	True
CC1(C)CC(=O)C(/C=N/CC2CCN(C(=O)Cc3ccccc3)CC2)=C(O)C1	False

With those in mind, consider the next molecule.
// query Could you please tell me the result logged for Cc1ccc(-c2ccc(/C=C3\SC(N4CCOCC4)=NC3=O)o2)cc1 in this assay?
// result True

###

Molecular target: Calpain-2 catalytic subunit (Sus scrofa)
Sequence (P43367 whole entry): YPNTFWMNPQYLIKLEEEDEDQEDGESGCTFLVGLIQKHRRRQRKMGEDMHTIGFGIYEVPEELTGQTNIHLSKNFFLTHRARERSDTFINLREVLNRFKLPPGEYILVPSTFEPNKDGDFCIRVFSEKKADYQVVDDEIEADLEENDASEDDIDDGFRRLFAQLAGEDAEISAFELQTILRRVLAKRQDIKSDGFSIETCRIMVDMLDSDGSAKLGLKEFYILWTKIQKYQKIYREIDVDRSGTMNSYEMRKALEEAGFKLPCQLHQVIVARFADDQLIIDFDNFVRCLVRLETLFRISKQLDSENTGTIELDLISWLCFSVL
Assay: pig calpain II inhibitor potency, dose response, biochemical, fluorogenic peptide substrate (AID 1420)
Type: functional
Active and inactive are the calls of the source.
Reported endpoint: IC50

Compound	IC50
c1ccc(N2CCN(c3ncnc4scc(-c5cccs5)c34)CC2)cc1	1.1 µM (not active)
O=C(C1CC1)N1CCc2cc(Br)cc(S(=O)(=O)NC3CCCCC3)c21	> 50 µM (not active)
Cc1cc([N+](=O)[O-])c(-c2ccc(/C=N/n3cnnc3)o2)cc1Cl	1.59 µM (not active)
CC1CCCN(C(=O)c2sc3cc([N+](=O)[O-])ccc3c2Cl)C1 (stereo not given)	7.61 µM (active)

// query Record request: IC50 value, item CN1C(=O)c2ccc(C(=O)NCc3ccc4c(c3)OCO4)cc2C1=O
// result 23.2 µM (not active)

// query Record request: IC50 value, item Cc1noc(NS(=O)(=O)c2ccc(NC(=O)c3ccc(N4C(=O)c5ccccc5C4=O)cc3)cc2)c1C
// result 4.9 µM (not active)

// query Record request: IC50 value, item SC1=NC[C@H](Cc2cccc3ccccc23)N1CC1CCCCC1
// result > 50 µM (not active)

// query Record request: IC50 value, item CCCCc1ccc(NC(=O)C2CCCO2)cc1 (stereo not given)
// result 13.4 µM (not active)

// query Record request: IC50 value, item O=C(/C=C/c1cccs1)N1CCOCC1
// result > 50 µM (not active)

// query Record request: IC50 value, item COc1ccc(CNc2ccc([N+](=O)[O-])cc2C)cc1
// result 3.81 µM (not active)

Where do the numbers come from? From ChEMBL document CHEMBL1201862.
